# credit: patent US10526323B2

Parameter pEC50: see the listing below.
# STUDY SYSTEM: mGluR4 (UniProt Q14833)
# ASSAY COMMENT: mGluR4 potentiation assay: increase in response to an EC20 concentration of agonist (species not given)
# PROTOCOL CONDITIONS: EC50 for potentiation of mGluR4; table does not state human or rat
pEC50: −log10 of the molar value.

Please review the entries below; each comes with its answer.
[
  {
    "SMILES STRUCTURE": "Clc1nn(C2CCC2)c2ccc(Nc3n[nH]c4cccnc34)cc12",
    "OBSERVED VALUE": "< 5.00"
  },
  {
    "SMILES STRUCTURE": "Cn1nc(OCCN2CCOCC2)c2ccc(Nc3n[nH]c4cccnc34)cc21",
    "OBSERVED VALUE": 6.62
  },
  {
    "SMILES STRUCTURE": "Cc1nn(C(C)C)c2cc(Nc3n[nH]c4nccnc34)ccc12",
    "OBSERVED VALUE": "< 5.00"
  },
  {
    "SMILES STRUCTURE": "CN1CCN(C(=O)c2nn(C)c3cc(Nc4n[nH]c5cccnc45)ccc23)CC1",
    "OBSERVED VALUE": "< 5.00"
  },
  {
    "SMILES STRUCTURE": "CC(C)n1nc(C2CC2)c2ccc(Nc3n[nH]c4cccnc34)cc21",
    "OBSERVED VALUE": "< 5.00"
  }
]

Kindly note the recorded pEC50 for Cc1nn(CC2CC2)c2ncc(Nc3n[nH]c4cccnc34)cc12 , which is < 5.00

Recorded result, Cc1nn(CC(C)(F)F)c2ccc(Nc3n[nH]c4cccnc34)cc12 , pEC50: 6.51

pEC50 in this record for Cc1cc(Cn2ncc3ncc(Nc4n[nH]c5nccnc45)cc32)no1 : < 5.00
